Catalogue of inhibition at 6 µM values
target: human RORγt LBD (Homo sapiens, UniProt P51449); construct: expressed in transfected cells; test: RORγt reporter assay (GAL4-RORγt LBD luciferase in HEK293T cells); format: cell-based; conditions: HEK-293T, @ 6 µM
Sequence (P51449 258-518): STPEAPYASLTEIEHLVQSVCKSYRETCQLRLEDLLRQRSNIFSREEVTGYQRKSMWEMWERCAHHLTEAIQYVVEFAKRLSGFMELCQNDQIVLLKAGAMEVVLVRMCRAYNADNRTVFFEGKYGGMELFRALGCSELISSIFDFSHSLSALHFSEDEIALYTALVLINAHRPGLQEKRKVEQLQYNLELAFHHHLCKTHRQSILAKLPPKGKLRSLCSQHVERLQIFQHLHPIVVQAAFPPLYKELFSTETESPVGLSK
Counter-ions that a name gives are not always drawn.
parameter-measured: inhibition at 6 µM

>>> result("Cn1cncc1C(O)(c1ccc(Cl)cc1)c1ccc2nc(N3CCC3=O)c(Oc3ccc(C#N)cc3)c(Cl)c2c1 (centres unmarked) [Example 1, TFA]")
"101%"
>>> result("CC(C)(C)OC(=O)N(c1ccccc1)c1c(Cl)nc2ccc(C(O)(c3cccnc3)c3cccc(Cl)c3)cc2c1Cl (centres unmarked) [Example 7]")
"72%"
>>> result("CCN(CC)c1nc2ccc(C(O)(c3ccccn3)c3cncn3C)cc2c(Cl)c1Oc1ccccc1 (centres unmarked) [Example 3b]")
"101%"
>>> result("CCN(CC)c1nc2ccc(C(O)(c3ccccn3)c3cncn3C)cc2c(C#N)c1Oc1ccccc1 (centres unmarked) [Example 5b]")
"102%"
>>> result("CC(C)OC1CN(c2nc3ccc(C(O)(c4ccc(C(F)(F)F)nc4)c4cncn4C)cc3c(Cl)c2Oc2ccc(Cl)cc2)C1 (centres unmarked) [Example 6]")
"41%"

====

target: human RORγt LBD (Homo sapiens); assay: RORγt reporter assay (GAL4-RORγt LBD luciferase in HEK293T cells); details: 24 hours compound treatment
Structures can show the parent of a compound that is named as a salt.
Labelling: IC50 reported below 900 nM becomes Criterion met; at or above becomes Criterion not met.

>>> classification("CCN(CC)c1nc2ccc(C(O)(c3ccccn3)c3cncn3C)cc2c(C#N)c1Oc1ccccc1 (stereo not drawn) [Example 5b]")
"Criterion met"
>>> classification("CC(C)OC1CN(c2nc3ccc(C(O)(c4ccc(C(F)(F)F)nc4)c4cncn4C)cc3c(Cl)c2Oc2ccc(Cl)cc2)C1 (stereo not drawn)")
"Criterion not met"
>>> classification("CCN(CC)c1nc2ccc(C(O)(c3ccccn3)c3cncn3C)cc2c(C#N)c1Oc1ccccc1 (single isomer, unassigned) [Example 5c]")
"Criterion met"
>>> classification("CCN(CC)c1nc2ccc(C(O)(c3ccccn3)c3cncn3C)cc2c(Cl)c1Oc1ccccc1 (stereo not drawn) [Example 3c]")
"Criterion not met"
>>> classification("CCN(CC)c1nc2ccc(C(O)(c3ccccn3)c3cncn3C)cc2c(Cl)c1Oc1ccccc1 (stereo not drawn) [Example 3b]")
"Criterion met"
>>> classification("Cn1cncc1C(O)(c1ccc(Cl)cc1)c1ccc2nc(N3CCC3=O)c(Oc3ccc(C#N)cc3)c(Cl)c2c1 (stereo not drawn) [Example 1, TFA]")
"Criterion met"

====

Record: Kd reported on human RORγt ligand binding domain (RORγt LBD) (Homo sapiens).
Sequence (P51449 258-518): as above
Counter-ions that a name gives are not always drawn.
parameter-measured: Kd (nM)

>>> quantitative_readout("CCN(CC)c1nc2ccc(C(O)(c3ccccn3)c3cncn3C)cc2c(Cl)c1Oc1ccccc1 (centres unmarked) [Example 3b]")
140
>>> quantitative_readout("CCN(CC)c1nc2ccc(C(O)(c3ccccn3)c3cncn3C)cc2c(Cl)c1Oc1ccccc1 (centres unmarked) [Example 3c]")
460
>>> quantitative_readout("Cn1cncc1C(O)(c1ccc(Cl)cc1)c1ccc2nc(N3CCC3=O)c(Oc3ccc(C#N)cc3)c(Cl)c2c1 (centres unmarked) [Example 1, TFA]")
58
>>> quantitative_readout("CC(C)OC1CN(c2nc3ccc(C(O)(c4ccc(C(F)(F)F)nc4)c4cncn4C)cc3c(Cl)c2Oc2ccc(Cl)cc2)C1 (centres unmarked) [Example 6]")
11000
